Reported pKa values are given for each entry in this list.
system_tested: Nterm1 (position 1, -----WGRGRG)
test: NMR
experimental_context: 300 K (general NMR methods statement; not restated for the titration), NaCl 0-0.2 M used in NMR samples, concentration for the pKa titration not given, 20 mM Tris (NMR methods), Free peptide in solution, disordered
Field format: numeric only.

Answered cases to consult:
[[record]]
protein = "WGRGRGRGWY [WGR-4 designer LLPS peptide (WGR-1 without the ELP motif) (synthetic construct; del10-13)]"
quantitative_readout = 7.37

[[record]]
protein = "WGRGRGRGWPGVGY [WGR-1 designer LLPS peptide (synthetic construct)]"
quantitative_readout = 7.50

[[record]]
protein = "WGRGRGRGWPGVGF [WGR-3 designer LLPS peptide (Tyr14 to Phe variant of WGR-1) (synthetic construct; Y14F)]"
quantitative_readout = 7.49


// next item, pKa requested
Challenge: Provide pKa value for the following protein: WGRGRGWPGVGY
Response given: 7.51
